src = PubChem BioAssay (NCATS)

Assay: UWB1.289-WTBRCA1 Cancer Cell Toxicity qHTS against the NCATS CANVASS Library (AID 1347354)
Settings: UWB1.289-WTBRCA1 viability, CellTiter-Glo luminescence, 72 h; series mostly up to 38.3 µM
Inconclusive results are not listed. Activity calls are given as the source filed them. Calls follow the shape of the dose curve; as a rule, active = well fitted cell-killing curve with a large enough effect; inconclusive = small, poorly fitted or top-dose-only effect, or effect the other way; inactive = flat fitted curve, though single readings scatter.
Thanks in advance; please answer with one of these: active, inactive

Would you please look over these solved cases?
molecule="CC1(C)CC[C@]2(CO)CC[C@]3(C)C(=CCC4[C@@]5(C)CC[C@H](O)C(C)(C)C5CC[C@]43C)C2C1 (stereo partly specified)" assigned_label=inactive
molecule="O=c1cc(-c2ccc(O)cc2)oc2cc(O)c([C@@H]3OC(CO)[C@H](O)[C@@H](O)[C@H]3O)c(O)c12 (stereo partly specified)" assigned_label=inactive
molecule=CC(C)=CCC[C@]12c3cc4c(cc3CC[C@@]1(C)[C@H](C)CC[C@@H]2O)[nH]c1ccccc14 assigned_label=inactive
molecule="O=C1CC2OCC=C3CN4C5CC3C2[C@@H]2N1c1ccccc1[C@]52C[C@@H]4C1=C[C@H]2C3CC4N(CC[C@@]45c4ccccc4N(C1=O)[C@@H]25)C/C3=C/CO (stereo partly specified)" assigned_label=inactive
molecule=C/C(=C\[C@@H](C)CC/C=C/CC/C=C/C(=O)O)[C@H](O)[C@H](C)C(=O)CCCC1CC(=O)NC(=O)C1 assigned_label=inactive

Query :: Hi, do you know how CN1CC[C@]23c4ccccc4N[C@H]1[C@]21CCN(C)[C@H]3Nc2ccccc21 came out in this test?
Result :: inactive

Query :: Hi, do you know how O=Cc1ccc2n1C[C@]1(C[C@H](O)[C@@H](CO)O1)OC2 came out in this test?
Result :: inactive

Query :: Hi, do you know how CC(C)C[C@@H]1c2c(O)c(C=O)c(O)c(C=O)c2O[C@]2(C)C=C[C@@H](C(C)C)C[C@H]12 came out in this test?
Result :: inactive

Query :: Hi, do you know how C[C@@]12CCC[C@@](C)(C(=O)O)[C@H]1C[C@@H](O)[C@@]13C[C@@H](CC[C@@H]21)[C@](C)(O)C3 came out in this test?
Result :: inactive

Query :: Hi, do you know how C=C(C)C(=O)O[C@H]1C[C@@]2(C)OC(=CC2=O)/C(C)=C\[C@H]2OC(=O)C(=C)[C@H]12 came out in this test?
Result :: active

====

Molecular target: Calcium and integrin-binding protein 1 (Homo sapiens)
Test: Primary qHTS for Identification of Calcium Integrin Binding Protein 1 (CIB1) Competitor (AID 1508620)
Details: CIB1-GST / FITC-alphaIIb peptide fluorescence polarization; series mostly up to 114 µM
Results filed as inconclusive are left out. Activity calls are given as the source filed them. Calls come from the whole dose curve; as a rule, active = well fitted inhibition curve with a large enough effect; inconclusive = small, poorly fitted or top-dose-only effect; inactive = flat fitted curve, though single readings scatter.
Thanks in advance; please answer with one of these: true (1) (active), false (0) (inactive)

Would you please look over these solved cases?
compound="COc1ccc(C2Nc3ccccc3C(=O)N2Cc2ccc(CNC(=O)CO)cc2)cc1COc1ccc(NC(C)=O)cc1 (stereo unspecified)" assigned_label="false (0)"
compound=Cc1cc(C)nc(NC(=S)N2CCN(c3cnc4nccn4c3)CC2)c1 assigned_label="false (0)"
compound=Cc1c(P(=S)(c2ccccc2)c2ccccc2)[n+]2ccccc2n1CCCCCc1ccccc1 assigned_label="false (0)"
compound="O=C1CCCC2=C1C(c1[nH]ncc1Cl)N=C(Nc1nc3cccc(Cl)c3o1)N2 (stereo unspecified)" assigned_label="false (0)"
compound=Cc1ccc(N2CCC(CNc3nc(-c4ccccc4C(C)C)ncc3F)CC2)cn1 assigned_label="false (0)"

Query :: Hi, do you know how Fc1ccc(-c2ccc(Nc3nc(-c4ccncc4)nc4ccccc34)cc2F)c(Cl)c1 came out in this test?
Result :: false (0)

Query :: Hi, do you know how NC(=O)C1CCN(c2nc(-c3cccc(C(F)(F)F)c3)cs2)CC1 came out in this test?
Result :: false (0)

Query :: Hi, do you know how FC(F)(F)c1ccccc1-c1nc(NCc2ccc(-c3cccnc3)cc2)c2[nH]cnc2n1 came out in this test?
Result :: false (0)

Query :: Hi, do you know how COc1ccnc(NC(=S)N2CCN(c3ccc(Cl)cc3Cl)CC2)c1 came out in this test?
Result :: false (0)

Query :: Hi, do you know how CN(C)c1ccc2c(=O)n3nc(Nc4ccc5c(c4)CCC5)sc3nc2c1 came out in this test?
Result :: false (0)

Query :: Hi, do you know how N#Cc1ccc(NS(=O)(=O)c2ccc3c(c2)CCC(=O)N3)cc1 came out in this test?
Result :: false (0)

Query :: Hi, do you know how Cc1cccc(-n2cnc3cc(C(=O)N4CCC(N5CCOCC5)CC4)ccc32)c1 came out in this test?
Result :: false (0)

Query :: Hi, do you know how CC(=O)Nc1sc2c(c1-c1nc3ccccc3o1)CCN(C(C)C)C2 came out in this test?
Result :: true (1)

Query :: Hi, do you know how COc1ccccc1CNC(=O)Nc1nnc(-c2ccncc2)s1 came out in this test?
Result :: false (0)

Query :: Hi, do you know how COc1ccc(C2=Nn3c(nnc3-c3ccccc3C)SC2)cc1 came out in this test?
Result :: false (0)

Query :: Hi, do you know how N#Cc1ccc(-c2ccc(CNc3ccc(N4CCOCC4)cc3)o2)cc1 came out in this test?
Result :: false (0)

Query :: Hi, do you know how Cc1cccc(-n2cnc3cc(C(=O)N4CCOCC4)ccc32)c1 came out in this test?
Result :: false (0)

Query :: Hi, do you know how Cc1cc(C)n2ncc(C(=O)Nc3ccc(Br)cc3)c2n1 came out in this test?
Result :: false (0)

Query :: Hi, do you know how Fc1ccc(-c2ccc(Nc3nc(-c4ccncc4)nc4ccccc34)cc2F)c(F)c1 came out in this test?
Result :: false (0)

Query :: Hi, do you know how Cc1cccc(-n2cnc3cc(C(=O)N4CCC(Cc5ccccc5)CC4)ccc32)c1 came out in this test?
Result :: false (0)

Query :: Hi, do you know how Cc1cnc(-c2ccccc2C(C)C)nc1NCc1ccc(-c2nn[nH]n2)cc1 came out in this test?
Result :: false (0)
